Biological target: Cannabinoid receptor 1 (Homo sapiens, UniProt P21554)
Sequence (P21554 whole entry): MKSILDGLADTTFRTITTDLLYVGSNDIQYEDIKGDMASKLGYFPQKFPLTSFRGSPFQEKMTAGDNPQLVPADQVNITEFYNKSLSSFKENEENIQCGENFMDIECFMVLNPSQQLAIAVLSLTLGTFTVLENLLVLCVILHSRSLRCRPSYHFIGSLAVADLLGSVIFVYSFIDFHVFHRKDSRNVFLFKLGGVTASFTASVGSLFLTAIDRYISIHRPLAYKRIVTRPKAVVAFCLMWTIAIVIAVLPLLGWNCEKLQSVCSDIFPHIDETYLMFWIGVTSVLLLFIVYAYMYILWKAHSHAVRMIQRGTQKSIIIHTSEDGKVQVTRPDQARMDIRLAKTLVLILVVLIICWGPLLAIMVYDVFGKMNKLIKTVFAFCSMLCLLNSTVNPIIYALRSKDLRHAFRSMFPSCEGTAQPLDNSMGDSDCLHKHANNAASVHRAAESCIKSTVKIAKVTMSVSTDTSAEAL
Experiment: biochemical
Type: cell-based, HEK293
Description: Displacement of [3H]CP-55940 from human CB1 receptor expressed in HEK293 cells
value kind: pIC50
Entry type: numeric. Quantity: pIC50, the -log10 of concentration in molar units.

Cc1c(C(=O)NN2CCCCC2)nn(-c2ccc(Cl)cc2Cl)c1-c1ccc(C#CC2CCCC2)s1 :: 8.15
Cc1c(C(=O)NN2CC3CCCC3C2)nn(-c2ccc(Cl)cc2Cl)c1-c1ccc(C#CC2CCCCC2)s1 (stereo not drawn) :: 8.11

# lookup: pIC50 of CCCC#Cc1ccc(-c2c(C)c(C(=O)NN3CCCCC3)nn2-c2ccc(Cl)cc2Cl)s1 7.86

Follow-up item: CCCC#Cc1ccc(-c2c(CC)c(C(=O)NN3CCCCC3)nn2-c2ccc(Cl)cc2Cl)s1 8.21

Follow-up item: CCCC#Cc1ccc(-c2c(C)c(C(=O)NN3CC4CCCC4C3)nn2-c2ccc(Cl)cc2Cl)s1 (stereo not drawn) 8.10

Follow-up item: Cc1c(C(=O)NN2CC3CCCC3C2)nn(-c2ccc(Cl)cc2Cl)c1-c1ccc(C#CC2CCCC2)s1 (stereo not drawn) 7.98

Follow-up item: Cc1c(C(=O)NN2CCCCC2)nn(-c2ccc(Cl)cc2Cl)c1-c1ccc(C#CC2CCCCC2)s1 8.14

Follow-up item: Cc1c(C(=O)NN2CCCCC2)nn(-c2ccc(Cl)cc2Cl)c1-c1ccc(C#CCCc2ccccc2)s1 8.21

# credit: ChEMBL document CHEMBL1140049
